Listing of entries alongside the reported pEC50.
Test system: U2OS_Bim cells
Assay Protocol: Apoptosis inhibition assay (Bim-induced apoptosis, cell viability by ATP level)
Format: cell-based
Run Conditions: U2OS_Bim cells; means of duplicates; numbering of Tables 4a/4b; read-out: EC50
pEC50: −log10 of the molar value.

// known answers, use as guide
# Compound, pEC50
data = [
    ("CCOc1cccc(Cn2cc(-c3cc(C)nc([S+]([O-])CCC(OCc4ccc(F)cc4F)c4ccccc4)n3)cc(F)c2=O)c1 (stereo not shown) [Compound 310]", "5.00 to 6.00"),
    ("CS(=O)(=O)c1nc(-n2cccn2)cc(C(F)(F)F)n1 [Compound 83]", "5.00 to 6.00"),
    ("COc1ccc(-c2cc(C(F)(F)F)nc(S(C)(=O)=O)n2)cc1 [Compound 53]", "> 4.00"),
]

Enquiry: Returns the measured pEC50 for the input compound. Input: COc1cc(Cl)c(Cn2cc(-c3cc(C(F)(F)F)nc(S(=O)(=O)CCC(=O)N4CCCCC4)n3)ccc2=O)cc1OC [Compound 154]
Return: 6.00 to 9.00

Enquiry: COc1cccc(C[S+]([O-])c2nc(-c3ccc(=O)n(Cc4ccc(OC)c(OC)c4)c3)cc(C(F)F)n2)c1 (stereo not shown) [Compound 173] ?
Return: 5.00 to 6.00

Enquiry: COc1ccc(Cn2cc(-c3cc(C(C)=O)nc(S(C)(=O)=O)n3)ccc2=O)cc1OC [Compound 163] ?
Return: 6.00 to 9.00

Enquiry: COc1cccc([S+]([O-])c2nc(-c3ccc(=O)n(Cc4ccc(OC)c(OC)c4)c3)cc(C(F)F)n2)c1 (stereo not shown) [Compound 175] ?
Return: 6.00 to 9.00

* * *

Listing of entries alongside the reported EC50.
Tested on: U2OS_Bim cells
Assay Protocol: Apoptosis inhibition assay (Bim-induced apoptosis, cell viability by ATP level)
Format: cell-based
Run Conditions: U2OS_Bim cells; means of duplicates; numbering of Tables 4a/4b; read-out: EC50

// known answers, use as guide
# Compound, EC50
measured = [
    ("C#Cc1ccc(Cn2cc(-c3cc(C(F)(F)F)nc(S(C)(=O)=O)n3)ccc2=O)cc1", "0.001 to 1 µM"),
    ("CS(=O)(=O)c1nc(-c2ccc(F)cc2)cc(C(F)(F)F)n1", "1 to 10 µM"),
    ("CS(=O)(=O)c1nc(-c2cccs2)cc(-n2cccn2)n1", "1 to 10 µM"),
]

Here is the next item to consider.
Enquiry: Returns the measured EC50 for the input compound. Input: CS(=O)(=O)c1nc(-c2ccn(Cc3cccc(C#N)c3)c2)cc(C(F)(F)F)n1
Return: < 100 µM

* * *

Listing of entries alongside the reported pEC50.
Test system: U2OS_Bim cells
Assay Protocol: Apoptosis inhibition assay (Bim-induced apoptosis, cell viability by ATP level)
Assay type: cell-based
Run Conditions: U2OS_Bim cells; means of duplicates; numbering of Tables 4a/4b; read-out: EC50
pEC50: −log10 of the molar value.

// known answers, use as guide
# Compound, pEC50
records = [
    ("COc1ccc(Cn2cc(-c3cc(C(F)(F)F)nc([S+]([O-])CCCC(N)=O)n3)ccc2=O)cc1OC (stereo not shown)", "> 4.00"),
    ("COc1ccc(Cn2cc(-c3cc(C(F)(F)F)nc(S(=O)(=O)CCC(=O)N4CCCCC4)n3)ccc2=O)cc1OC", "6.00 to 9.00"),
    ("CS(=O)(=O)c1nc(-c2ccc(=O)n(Cc3cccc4ccccc34)c2)cc(C(F)(F)F)n1", "5.00 to 6.00"),
]

Here is the next item to consider.
Enquiry: Returns the measured pEC50 for the input compound. Input: COc1cccc(S(=O)(=O)c2nc(-c3ccc(=O)n(Cc4ccc(OC)c(OC)c4)c3)cc(C(F)F)n2)c1
Return: 6.00 to 9.00

meta.source: patent US11725000B2
